target.or.test.system: VEGFR3 (Homo sapiens, UniProt P35916)
Construct: host or cells: HMVEC-dLyAD
Sequence (P35916 25-1363): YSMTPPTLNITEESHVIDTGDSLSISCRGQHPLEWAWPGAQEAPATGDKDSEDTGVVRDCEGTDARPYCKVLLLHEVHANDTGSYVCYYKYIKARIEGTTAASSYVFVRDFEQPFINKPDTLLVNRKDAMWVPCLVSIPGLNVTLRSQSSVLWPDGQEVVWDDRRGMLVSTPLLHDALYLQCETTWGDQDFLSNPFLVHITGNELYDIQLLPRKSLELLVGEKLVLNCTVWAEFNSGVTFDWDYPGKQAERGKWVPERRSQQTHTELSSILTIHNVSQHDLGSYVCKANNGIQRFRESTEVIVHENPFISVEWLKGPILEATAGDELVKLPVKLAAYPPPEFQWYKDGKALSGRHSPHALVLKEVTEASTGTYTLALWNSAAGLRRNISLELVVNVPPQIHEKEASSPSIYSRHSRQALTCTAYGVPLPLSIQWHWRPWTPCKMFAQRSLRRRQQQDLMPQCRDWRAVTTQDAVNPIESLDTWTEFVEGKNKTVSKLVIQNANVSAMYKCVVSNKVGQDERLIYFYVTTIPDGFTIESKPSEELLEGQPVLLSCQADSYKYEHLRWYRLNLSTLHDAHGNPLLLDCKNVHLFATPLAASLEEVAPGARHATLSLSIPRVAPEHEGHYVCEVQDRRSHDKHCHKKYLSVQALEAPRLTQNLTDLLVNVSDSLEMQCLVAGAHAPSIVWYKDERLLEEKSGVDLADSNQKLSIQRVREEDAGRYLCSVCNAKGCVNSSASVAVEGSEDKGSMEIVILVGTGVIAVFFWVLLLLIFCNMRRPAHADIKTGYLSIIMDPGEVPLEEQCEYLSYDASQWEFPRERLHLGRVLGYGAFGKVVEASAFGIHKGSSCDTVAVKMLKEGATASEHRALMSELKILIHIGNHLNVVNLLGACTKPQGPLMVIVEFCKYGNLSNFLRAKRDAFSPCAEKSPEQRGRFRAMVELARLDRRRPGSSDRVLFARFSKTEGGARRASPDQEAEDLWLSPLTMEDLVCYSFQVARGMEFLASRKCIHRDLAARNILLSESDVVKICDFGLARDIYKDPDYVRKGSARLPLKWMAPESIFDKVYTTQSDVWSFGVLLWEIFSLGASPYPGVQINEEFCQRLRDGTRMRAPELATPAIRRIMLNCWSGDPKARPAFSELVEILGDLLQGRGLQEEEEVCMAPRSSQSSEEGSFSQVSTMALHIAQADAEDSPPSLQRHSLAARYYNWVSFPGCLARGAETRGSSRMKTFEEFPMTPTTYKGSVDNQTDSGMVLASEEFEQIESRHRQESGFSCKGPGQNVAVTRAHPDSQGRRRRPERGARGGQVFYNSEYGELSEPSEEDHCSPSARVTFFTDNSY
experiment.description: VEGFR3 Phospho ELISA assay in HMVEC-dLyAD cells, VEGFC stimulated
Format: cell-based
condition.parameters: 1 hour compound, 250 ng/mL VEGFC 10 minutes
reported.metric: IC50 (nM)
// return numeric value only (unit: nM, not printed)

Some compounds with known IC50 results, for comparison:
compound	reported.metric	quantitative.result
Cc1cc(Nc2ncc(C(F)(F)F)c(CCc3ccccc3CC(N)=O)n2)ccc1C1CCNCC1 [Compound 11]	IC50	39
Cc1cnc(Nc2ccc(C3CCNCC3)cc2)nc1CCc1ccccc1CC(N)=O [Compound 16]	IC50	214
Cc1cc(Nc2ncc(C(F)(F)F)c(CCc3ccccc3CC(N)=O)n2)ccc1C1CCN(C)CC1 [Compound 12]	IC50	116
Cc1cnc(Nc2ccc(OC3CCNCC3)cc2)nc1CCc1ccccc1CC(N)=O [Compound 26]	IC50	83
Cc1cnc(Nc2ccc(C3CCN(C)CC3)nc2)nc1CCc1ccccc1CC(N)=O [Compound 5]	IC50	210
NC(=O)Cc1ccccc1CCc1nc(Nc2ccc(C(=O)N3CCNCC3)cc2)ncc1C(F)(F)F [Compound 6]	IC50	62
Cc1cnc(Nc2ccc(C3(N)COC3)cc2)nc1CCc1ccccc1CC(N)=O [Compound 31]	IC50	107
Cc1cnc(Nc2cnn(C)c2)nc1CCc1ccccc1CC(N)=O [Compound 28]	IC50	190

Exam item: Recorded IC50 of CC(N)c1ccc(Nc2ncc(C(F)(F)F)c(CCc3ccccc3CC(N)=O)n2)cc1 (centres unmarked) [Compound 18] , please.
Marked response: 18

Exam item: Recorded IC50 of Cc1cnc(Nc2ccc(N3CCNCC3)cc2)nc1CCc1ccccc1CC(N)=O [Compound 2] , please.
Marked response: 121

Exam item: Recorded IC50 of CC(N)c1ccc(Nc2ncc(Cl)c(CCc3ccccc3CC(N)=O)n2)cc1 (centres unmarked) [Compound 37] , please.
Marked response: 26

Exam item: Recorded IC50 of NC(=O)Cc1cc(F)ccc1CCc1nc(Nc2ccc(C3CCNCC3)cc2)ncc1C(F)(F)F [Compound 9] , please.
Marked response: 379

Exam item: Recorded IC50 of Cc1cnc(Nc2cnn(C3CCNCC3)c2)nc1CCc1ccccc1CC(N)=O [Compound 33] , please.
Marked response: 1250

Exam item: Recorded IC50 of NCc1ccc(Nc2ncc(C(F)(F)F)c(CCc3ccccc3CC(N)=O)n2)cc1 [Compound 3] , please.
Marked response: 156

Exam item: Recorded IC50 of NC(=O)Cc1ccccc1CCc1nc(Nc2ccc(C3CCNCC3)nc2)ncc1C(F)(F)F [Compound 13] , please.
Marked response: 1030

Exam item: Recorded IC50 of Cc1cnc(Nc2ccc(C3CCNCC3)nc2)nc1CCc1ccccc1CC(N)=O [Compound 4] , please.
Marked response: 2220

Exam item: Recorded IC50 of Cc1cnc(Nc2cccnc2)nc1CCc1ccccc1CC(N)=O [Compound 24] , please.
Marked response: 169
